system_name: melanocortin-4 receptor (Homo sapiens, UniProt P32245)
Construct: expressed in transfected cells; host or cells: HEK293 cells (membrane preparations)
Sequence (P32245 whole entry): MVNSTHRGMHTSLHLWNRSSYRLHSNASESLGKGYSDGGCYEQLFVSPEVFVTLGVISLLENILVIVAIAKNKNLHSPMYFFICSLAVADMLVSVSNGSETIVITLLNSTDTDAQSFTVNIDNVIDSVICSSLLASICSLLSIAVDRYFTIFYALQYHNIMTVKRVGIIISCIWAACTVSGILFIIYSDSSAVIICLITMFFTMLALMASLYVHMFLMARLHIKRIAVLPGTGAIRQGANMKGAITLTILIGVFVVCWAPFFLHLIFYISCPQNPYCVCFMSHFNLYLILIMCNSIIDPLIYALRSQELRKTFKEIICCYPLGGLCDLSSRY
protocol_description: Membrane binding assay (fluorescence polarization, competition with fluorescence labeled NDP-alpha-MSH)
condition_info: read-out: hMC-4R binding assay IC50/μM
endpoint: IC50

CC(C)CCN(CCC(C)C)C(=O)c1ccc2nc(-c3ccc4c(c3)NC(=O)CO4)c(CN3CCC(N)CC3)n2c1: 0.1 to 1 µM
CC(C)CCN(CCC(C)C)C(=O)c1ccc2nc(-c3ncco3)c(CCCN3CC[C@H](F)C3)n2c1: < 0.1 µM
CC(C)CCN(CCC(C)C)C(=O)c1ccc2nc(-c3ccc(=O)[nH]c3)c(CCCN(C)C)n2c1: 0.1 to 1 µM
COc1cccc(-c2nc3ccc(C(=O)N(CCC(C)C)CCC(C)C)cn3c2CCCN2CC[C@H](O)C2)c1: < 0.1 µM
CC(C)CCN(CCC(C)C)C(=O)c1ccc2nc(-c3ncco3)c(CCCN3CCCC3)n2c1: < 0.1 µM
COc1cccc(-c2nc3ccc(C(=O)N(CCC(C)C)CCC(C)C)cn3c2CCCN(C(C)C)C(C)C)c1: 0.1 to 1 µM
COCCOc1ccc(-c2nc3ccc(C(=O)N(CCC(C)C)CCC(C)C)cn3c2CCCN2CCCC2)cn1: < 0.1 µM
